- target_or_test_system: T1, recombinant DLL3 ectodomain (rhDLL3-Fc) (human, UniProt Q9NYJ7 27-492, biotinylated (NHS-LC-LC-biotin) in the BLI and SPR assays)
- T1 construct: also called rDLL3-Fc; recombinant human DLL3 (rDLL3); not shown: Fc part
- T1 sequence: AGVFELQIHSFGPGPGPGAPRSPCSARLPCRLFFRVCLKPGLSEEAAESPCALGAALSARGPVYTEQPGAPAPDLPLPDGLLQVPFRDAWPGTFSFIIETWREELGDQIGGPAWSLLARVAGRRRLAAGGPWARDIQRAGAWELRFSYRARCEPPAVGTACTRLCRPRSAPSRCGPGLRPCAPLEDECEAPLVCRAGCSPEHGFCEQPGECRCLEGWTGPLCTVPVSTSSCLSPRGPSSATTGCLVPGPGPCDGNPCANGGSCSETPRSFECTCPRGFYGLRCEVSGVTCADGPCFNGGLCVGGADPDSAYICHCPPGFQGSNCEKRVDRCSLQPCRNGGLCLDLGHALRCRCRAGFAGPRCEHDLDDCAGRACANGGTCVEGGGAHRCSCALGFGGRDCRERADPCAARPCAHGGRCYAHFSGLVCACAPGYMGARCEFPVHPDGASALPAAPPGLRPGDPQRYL
- assay_method_text: SPR (Biacore), biotinylated rhDLL3-Fc on SA chip
Bridge positions count the residues as written; N and C are the ends. Primed or numbered codes have the meaning given here. Ttds″ = trioxatridecan-succinamic acid linker
Entries annotated with measured kon

Exam item: Which kon value is on record for Ac-AETVEFWWCNGNSENWTCTWGG-{Ttds-K(PEG4-DBCO)-NH2} (disulfide 9-18 (inferred), also called PspSP1462) [PepSP1462] ?
Marked response: 230000 M⁻¹ s⁻¹

Exam item: Try the binder Ac-AETVEFWWCNGNSENWTCTWGG-{Ttds″-K(PEG3)} (disulfide 9-18 (inferred); also: dimer of two copies, carries PEG4-DBCO, also called PspSP1487) [PepSP1487]
Marked response: 76000 M⁻¹ s⁻¹

Exam item: Try the binder Ac-AETVEFWWCNGNSENWTCTWGG-{Ttds″-K(Ttds-Ttds-PEG3)} (disulfide 9-18 (inferred); also: dimer linked via PEG4-DBCO, also called PspSP1489) [PepSP1489]
Marked response: 110000 M⁻¹ s⁻¹

Exam item: Try the binder Ac-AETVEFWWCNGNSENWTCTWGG-{Ttds″-K(PEG4-PEG3)} (disulfide 9-18 (inferred); also: dimer linked via PEG4-DBCO, also called PspSP1488) [PepSP1488]
Marked response: 120000 M⁻¹ s⁻¹
